molecular target: Proto-oncogene tyrosine-protein kinase Src (Homo sapiens, UniProt P12931); assay: In vitro inhibition of c-src tyrosine kinase.
Sequence (P12931 2-536 limits assumed): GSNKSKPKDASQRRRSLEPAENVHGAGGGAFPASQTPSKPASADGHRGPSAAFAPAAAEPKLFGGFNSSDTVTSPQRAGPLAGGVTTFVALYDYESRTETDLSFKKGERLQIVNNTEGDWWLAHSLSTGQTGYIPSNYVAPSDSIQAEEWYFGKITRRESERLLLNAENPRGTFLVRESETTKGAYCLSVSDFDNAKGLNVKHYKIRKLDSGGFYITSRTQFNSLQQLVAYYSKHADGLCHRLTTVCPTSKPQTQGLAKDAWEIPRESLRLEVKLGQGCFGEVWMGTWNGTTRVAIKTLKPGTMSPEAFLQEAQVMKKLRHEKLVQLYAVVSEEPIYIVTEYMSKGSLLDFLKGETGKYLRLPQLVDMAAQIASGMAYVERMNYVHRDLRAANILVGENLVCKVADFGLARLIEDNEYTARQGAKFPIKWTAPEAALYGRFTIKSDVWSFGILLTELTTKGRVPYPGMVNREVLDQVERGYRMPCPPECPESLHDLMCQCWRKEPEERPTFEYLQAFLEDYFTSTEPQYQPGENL
quantity.name: IC50 (nM)

1: COc1cc2ncnc(Nc3cc(OC)c(OC)c(OC)c3)c2cc1OC
2: COc1cc2ncc(C#N)c(Nc3cc(OC)c(OC(C)C)c(OC)c3)c2cc1OC
Request: Param metric = IC50; output whichever of 1 , 2 has the minimum value. Reply with the label of the item you choose.
Result: 2

====

target: UniProt P12931; experiment: In vitro inhibition of c-src tyrosine kinase.
pIC50: −log10 of the molar value.
quantity.name: pIC50

[
  {
    "molecule": "COc1ccc(Nc2c(C#N)cnc3cc(OC)c(OC)cc23)cc1OC",
    "measured.target": "UniProt P12931",
    "result": 6.02
  },
  {
    "molecule": "COc1cc2ncnc(Nc3cc(OC)c(OC(C)(C)C)c(OC)c3)c2cc1OC",
    "measured.target": "UniProt P12931",
    "result": 5.57
  },
  {
    "molecule": "COc1cc2c(Nc3cc(OC)c(OC)c(OC)c3)c(C#N)cnc2cc1OCCCN1CCCCC1",
    "measured.target": "UniProt P12931",
    "result": 8.28
  }
]

A: CCCCCCCCCCCCOc1c(OC)cc(Nc2ncnc3cc(OC)c(OC)cc23)cc1OC
B: COc1cc2ncc(C#N)c(Nc3cc(OC)c(OC)c(OC)c3)c2cc1OC
Request: Would you let me know which has the greater pIC50 value, A or B ? Let me know the label of the one you choose.
Result: B
(B: 7.46, A: 5.28)

====

target: Proto-oncogene tyrosine-protein kinase Src (Homo sapiens); assay: Inhibition of Src kinase at 500 nM ATP
quantity.name: IC50 (nM)
Report only the number, with the unit nM understood.

Query COc1cc2ncc(C#N)c(Nc3cc(OC)c(OC)c(OC)c3)c2cc1OC on Proto-oncogene tyrosine-protein kinase Src (Homo sapiens); IC50 returned: 108

====

target: Proto-oncogene tyrosine-protein kinase Src (Homo sapiens); experiment: Inhibition of Src kinase at 5000 nM ATP
quantity.name: pIC50
Answer as the number alone; pIC50 is minus log10 of concentration in mol/L.

So, COc1cc2ncc(C#N)c(Nc3cc(OC)c(OC)c(OC)c3)c2cc1OC ? Its pIC50 was 6.19

====

biological target: UniProt P12931; assay: In vitro inhibition of c-src tyrosine kinase.
pIC50: −log10 of the molar value.
quantity.name: pIC50

[
  {
    "molecule": "COc1cc2ncc(C#N)c(Oc3cc(OC)c(OC)c(OC)c3)c2cc1OC",
    "measured.target": "UniProt P12931",
    "pIC50": 6.54
  },
  {
    "molecule": "CCOc1c(OC)cc(Nc2ncnc3cc(OC)c(OC)cc23)cc1OC",
    "measured.target": "UniProt P12931",
    "pIC50": 6.47
  }
]
